MEASUREMENT_TARGET: L-Selectin (Homo sapiens, UniProt P14151)
Sequence (P14151 39-332 limits assumed): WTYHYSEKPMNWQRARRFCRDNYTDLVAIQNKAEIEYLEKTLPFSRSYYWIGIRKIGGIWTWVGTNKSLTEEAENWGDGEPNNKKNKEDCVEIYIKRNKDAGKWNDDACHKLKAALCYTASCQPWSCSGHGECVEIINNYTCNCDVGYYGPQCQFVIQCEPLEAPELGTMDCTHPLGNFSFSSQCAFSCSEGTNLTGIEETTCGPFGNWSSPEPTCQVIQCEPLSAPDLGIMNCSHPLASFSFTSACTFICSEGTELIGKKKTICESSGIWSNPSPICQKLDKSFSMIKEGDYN
pIC50: −log10 of the molar value.
OBSERVABLE: pIC50

CCOC(=O)c1c(NC(=O)c2ccc(S(=O)(=O)N(CC)CC)cc2)sc2c1CC(C)(C)NC2(C)C :: 4.59

[A] CC(C)N1CCc2c(sc(NC(=O)c3ccc(S(=O)(=O)N4CCOCC4)cc3)c2-c2nc3ccccc3s2)C1
[B] CC1(C)Cc2c(sc(NC(=O)c3ccc(S(=O)(=O)N4CCCc5ccccc54)cc3)c2C(N)=O)C(C)(C)N1
[C] C=CCN(CC=C)S(=O)(=O)c1ccc(C(=O)Nc2sc3c(c2C(=O)OC)CC(C)(C)NC3(C)C)cc1
Please produce an ascending ranking of these molecules based on pIC50. The response must list the labels following the requested ordering.
C, A, B

* * *

MEASUREMENT_TARGET: L-Selectin (Homo sapiens, UniProt P14151)
Construct: purchased Research and Development Systems 728-LS
PROTOCOL_NOTES: ELISA: inhibition of L-selectin/IgG binding to immobilized heparin (Heparin-BSA)
EXPERIMENTAL_PARAMETERS: L-Selectin binding to heparin; 50 μM
OBSERVABLE: inhibition at 50 µM (%)

CCCCN(C)S(=O)(=O)c1ccc(C(=O)Nc2sc3c(c2C(N)=O)CC(C)(C)NC3(C)C)cc1 :: 39

[a] C=CCN(CC=C)S(=O)(=O)c1ccc(C(=O)Nc2sc3c(c2-c2nc4ccccc4s2)CCN(CC)C3)cc1
[b] C=CCN(CC=C)S(=O)(=O)c1ccc(C(=O)Nc2sc3c(c2-c2nc4ccccc4s2)CCN(C(C)C)C3)cc1
Could you kindly indicate whether a or b has the higher inhibition at 50 µM value? Indicate your choice by writing its label.
a
(a: 25%, b: 17%)

[A] CCCCN(C)S(=O)(=O)c1ccc(C(=O)Nc2sc3c(c2-c2nc4ccccc4s2)CCN(C)C3)cc1
[B] COCCN(CCOC)S(=O)(=O)c1ccc(C(=O)Nc2sc3c(c2-c2nc4ccccc4s2)CCN(C)C3)cc1
Of A and B , which carries the smaller reported inhibition at 50 µM figure? Indicate your choice by writing its label.
A
(A: 26%, B: 43%)

* * *

MEASUREMENT_TARGET: L-Selectin (Homo sapiens)
Construct: purchased Research and Development Systems 728-LS
PROTOCOL_NOTES: ELISA: inhibition of L-selectin/IgG binding to immobilized heparin (Heparin-BSA)
EXPERIMENTAL_PARAMETERS: L-Selectin binding to heparin; 50 μM
OBSERVABLE: inhibition at 50 µM (%)

CCCCN(CC)S(=O)(=O)c1ccc(C(=O)Nc2sc3c(c2-c2nc4ccccc4s2)CCN(C)C3)cc1 :: 21
C=CCN(CC=C)S(=O)(=O)c1ccc(C(=O)Nc2sc3c(c2-c2nc4ccccc4s2)CCN(C)C3)cc1 :: 25
CCCCN(CC)S(=O)(=O)c1ccc(C(=O)Nc2sc3c(c2-c2nc4ccccc4s2)CCN(C(C)C)C3)cc1 :: 27
